// protein stability index lookup, one value per entry
B1: CAMK2A (parent)
chain: ILLVGYPPFWDEDQHRLYKQIKAG

Variants of: B1
ASSAY_COMMENT: protein stability index of a GFP-peptide fusion (GPS, HEK-293T) (PSI 1-6); higher = more stable;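 further: lentivirally expressed fusions sorted by FACS into six bins by GFP to DsRed ratio, PSI derived from sequencing read proportions per bin multiplied by bin number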
TEST_PARAMETERS: c terminus: a fixed tail appended
Please give the numeric answer without any surrounding text.

Field: example entries. Status: answers known.
VARIANT_STRING	protein stability index
V4I	3.1
L2T	1.86
K22R	1.91

Query: Using known records, supply protein stability index for `F9T`
Result: 1.84

Query: Using known records, supply protein stability index for `K22C`
Result: 2.31

Query: Write down protein stability index measured for item `I1K`
Result: 2.23

Query: Supply measured protein stability index of `L17P` in your reply.
Result: 2.03

Query: Answer with the recorded protein stability index for the variant listed here: `G5W`
Result: 1.53

Query: Please look at this variant and report its protein stability index: `K22M`
Result: 2.6

Query: Identify protein stability index associated with the variant `I1N`
Result: 2.03

Query: // Input: `L2K` . Output its protein stability index only.
Result: 1.63

Query: # return recorded protein stability index for entry `P8A`
Result: 1.83

Query: Read off the recorded protein stability index for `E12K`
Result: 1.92

Query: Please supply the value of reported protein stability index for the item `I1V`
Result: 2.15

Query: Annotate the variant `L2N` with its measured protein stability index.
Result: 1.52

Query: Report measured protein stability index; entry is `Y6K`
Result: 1.39

Query: Give reported protein stability index value for `Q20P`
Result: 1.39

Query: Indicate the recorded protein stability index value for this variant: `Y6L`
Result: 1.61

Query: Recall and state the measured protein stability index for `L2I` .
Result: 2.57

Query: // Input: `H15D` . Output its protein stability index only.
Result: 2.13

Query: Supply measured protein stability index of `A23Y` in your reply.
Result: 2.73

Query: Give a short answer stating reported protein stability index for `D11C` .
Result: 2.48

Query: Quick one: give measured protein stability index for `L17R`
Result: 2.12

Query: For the variant `H15L` , give its reported protein stability index.
Result: 2.16
